meta.source: ChEMBL document CHEMBL5316287

Assay text: 1-Octanol/PBS partition coefficient, logD of the compound at pH 7.4 incubated for 30 mins by shake flask technique based HPLC-LC/MS analysis
Type: physicochemical
Readout name: logD at 0.5 h
Just the number, please, no unit after it.

Would you please look over these solved cases?
COc1ccc(C2(C(=O)N3C[C@H](F)C[C@@H]3C(=O)Nc3ccc4[nH]ncc4n3)CC(F)(F)C2)cc1 | 2.1
CS(=O)(=O)c1ccc(C2(C(=O)N3C[C@H](F)C[C@@H]3C(=O)Nc3ccc4[nH]ncc4n3)CCC(F)(F)CC2)cc1 | 1.6
COc1c(F)cc(C2(C(=O)N3C[C@H](F)C[C@@H]3C(=O)Nc3ccc4[nH]ncc4n3)CCC(F)(F)CC2)cc1F | 3.2

Entry `COc1ccc(C2(C(=O)N3C[C@H](F)C[C@@H]3C(=O)Nc3ccc4[nH]ncc4n3)CCCCC2)cn1` — recorded logD at 0.5 h = 2.3

Entry `COc1ccc(C2(C(=O)N3C[C@H](F)C[C@@H]3C(=O)Nc3ccc4[nH]ncc4n3)CCCCC2)cc1F` — recorded logD at 0.5 h = 3.1

###

Assay text: Metabolic stability in human liver microsomes assessed as intrinsic clearance at 1 uM
Type: ADME, Microsome
Class True: intrinsic clearance at least 40 µL/min/mg. Class False: intrinsic clearance below 40 µL/min/mg.

Example entries and their recorded answers appear below.
COc1ccc(C2(C(=O)N3C[C@H](F)C[C@@H]3C(=O)Nc3ccc4[nH]ncc4n3)CCCCC2)cc1F | True
COc1ccc(C2(C(=O)N3C[C@H](F)C[C@@H]3C(=O)Nc3ccc4[nH]ncc4n3)CCC(F)(F)CC2)cc1 | True
COc1c(F)cc(C2(C(=O)N3C[C@H](F)C[C@@H]3C(=O)Nc3ccc4[nH]ncc4n3)CCC(F)(F)CC2)cc1F | True
COc1ccc(C2(C(=O)N3C[C@H](F)C[C@@H]3C(=O)Nc3ccc4[nH]ncc4n3)CCOCC2)cc1 | False
COc1ccc(C(C)(C)C(=O)N2C[C@H](F)C[C@@H]2C(=O)Nc2ccc3[nH]ncc3n2)cc1 | False

hey, is intrinsic clearance for this one >= 40 µL/min/mg? `COc1ccc(C2(C(=O)N3C[C@H](F)C[C@@H]3C(=O)Nc3ccc4[nH]ncc4n3)CCCCC2)cn1`
True

###

Recorded logD at 0.5 h for the following compounds
Assay text: 1-Octanol/PBS partition coefficient, logD of the compound at pH 7.4 incubated for 30 mins by shake flask technique based HPLC-LC/MS analysis
Assay type: physicochemical

Would you please look over these solved cases?
COc1ccc(C2(C(=O)N3C[C@H](F)C[C@@H]3C(=O)Nc3ccc4[nH]ncc4n3)CC(C)(C)C2)cc1 | 3.1
O=C(Nc1ccc2[nH]ncc2n1)[C@H]1C[C@@H](F)CN1C(=O)C1(c2ccc(C(=O)C(F)(F)F)cc2)CCCCC1 | 3.4
O=C(Nc1ccc2[nH]ncc2n1)[C@H]1C[C@@H](F)CN1C(=O)C1(c2ccc(O)cc2)CCCCC1 | 2.7
COc1ccc(C2(C(=O)N3C[C@H](F)C[C@@H]3C(=O)Nc3ccc4[nH]ncc4n3)CCCCC2)cc1 | 3.1
COc1ccc(C2(C(=O)N3C[C@H](F)C[C@@H]3C(=O)Nc3ccc4[nH]ncc4n3)CCC(F)(F)CC2)cc1F | 3
COc1ccc(C2(C(=O)N3C[C@H](F)C[C@@H]3C(=O)Nc3ccc4[nH]ncc4n3)CCC(F)(F)CC2)cc1 | 3
COc1ccc(C(C)(C)C(=O)N2C[C@H](F)C[C@@H]2C(=O)Nc2ccc3[nH]ncc3n2)cc1 | 1.9

Entry `COc1ccc(C2(C(=O)N3C[C@H](F)C[C@@H]3C(=O)Nc3ccc4[nH]ncc4n3)CCOCC2)cc1` — recorded logD at 0.5 h = 1.6
